B1: glmS ribozyme (parent)
chain: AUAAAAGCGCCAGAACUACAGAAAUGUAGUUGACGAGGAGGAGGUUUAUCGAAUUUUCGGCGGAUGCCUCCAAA

Variants of: B1
experiment summary: self-cleavage kobs at 640 uM GlcN6P; higher = faster cleavage; RNA array
test settings: with glucosamine-6-phosphate
Variants at the floor of the assay were thinned out.
reported endpoint: self-cleavage kobs at 640 uM GlcN6P

Previously resolved entries follow.
# variant notation, self-cleavage kobs at 640 uM GlcN6P
data = [
    ("C11A U46A", "< 1e-05 s⁻¹"),
    ("G9C C70G", "< 1e-05 s⁻¹"),
    ("G13A G59A G62A", "< 1e-05 s⁻¹"),
    ("G41U G63U", "< 1e-05 s⁻¹"),
    ("G38C G40U U46A", "< 1e-05 s⁻¹"),
]

// C8A C16A G63U A64G U65C C71G : self-cleavage kobs at 640 uM GlcN6P value = < 1e-05 s⁻¹

// G13A U49A A64G : self-cleavage kobs at 640 uM GlcN6P value = < 1e-05 s⁻¹

// recorded self-cleavage kobs at 640 uM GlcN6P for G60U C68G : < 1e-05 s⁻¹

get_value(item= G44U U57A U69A , readout=self-cleavage kobs at 640 uM GlcN6P) returns < 1e-05 s⁻¹

get_value(item= A12C U30A G35A , readout=self-cleavage kobs at 640 uM GlcN6P) returns < 1e-05 s⁻¹

The variant identified as A15C U47G registered its self-cleavage kobs at 640 uM GlcN6P at 0.000312 s⁻¹

Reported self-cleavage kobs at 640 uM GlcN6P for U55A U69A was 9.88e-05 s⁻¹

Data credit: the supplement of paper PMC7125110
